Reported values of Dmax at 1 µM for individual entries
target: MycC (Homo sapiens, UniProt P01106); construct: endogenous in cells; host or cells: L363; experiment: Degradation of MycC protein in L363 cells, JESS/Western blot of lysates; format: cell-based; details: L-363, 24 h, L-363 cells, 24 h, 1 μM; read-out: % Degradation of MycC (L-363) 24 h, 1 μM
Sequence (P01106 whole entry): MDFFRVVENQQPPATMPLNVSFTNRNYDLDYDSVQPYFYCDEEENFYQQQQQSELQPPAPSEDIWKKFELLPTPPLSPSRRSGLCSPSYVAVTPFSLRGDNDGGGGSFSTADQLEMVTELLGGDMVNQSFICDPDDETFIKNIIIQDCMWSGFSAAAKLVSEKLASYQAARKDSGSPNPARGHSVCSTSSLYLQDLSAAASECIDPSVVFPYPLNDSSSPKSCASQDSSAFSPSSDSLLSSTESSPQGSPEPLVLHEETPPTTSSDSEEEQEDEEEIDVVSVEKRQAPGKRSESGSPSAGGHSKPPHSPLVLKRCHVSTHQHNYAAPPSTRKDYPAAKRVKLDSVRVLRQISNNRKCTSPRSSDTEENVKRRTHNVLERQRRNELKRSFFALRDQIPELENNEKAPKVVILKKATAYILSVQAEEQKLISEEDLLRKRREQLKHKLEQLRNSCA

>>> df
                                   compound                           measuredon  experimentalresult
0  CN1CC2(CCN(c3nccc(Nc4cc(C5CC5)[nH]n4)n3)C2)C1 [Compound 3]  MycC (Homo sapiens, UniProt P01106)           20 to 49%
1  c1cc(Nc2cc(C3CC3)[nH]n2)nc(N2CC3(CCNC3)C2)n1 [Compound 25]  MycC (Homo sapiens, UniProt P01106)               < 20%
2  CNC[C@@H]1CCCN(c2nccc(Nc3cc(C4CC4)[nH]n3)n2)C1 [Compound 37]  MycC (Homo sapiens, UniProt P01106)               < 20%

QUERY: Report its Dmax at 1 µM with MycC (Homo sapiens, UniProt P01106) as the test system: CN1CC2(CCCN(c3nccc(Nc4cc(C5CC5)[nH]n4)n3)C2)C1 [Compound 43]
RESULT: < 20%

QUERY: Give reported Dmax at 1 µM for CNCC12CC(C1)N(c1nccc(Nc3cc(C4CCC4)[nH]n3)n1)C2 [Compound 81] (MycC (Homo sapiens, UniProt P01106))
RESULT: 20 to 49%

QUERY: Send back MycC (Homo sapiens, UniProt P01106) Dmax at 1 µM of c1cc(Nc2cc(C3CC3)[nH]n2)nc(N2CCC3(CNC3)C2)n1 [Compound 2] only.
RESULT: 20 to 49%

QUERY: Specify Dmax at 1 µM for CN1C[C@@H]2CN(c3nccc(Nc4cc(C5CC5)[nH]n4)n3)C[C@@H]2C1 [Compound 15] , system MycC (Homo sapiens, UniProt P01106).
RESULT: 20 to 49%

----------
molecular target: MycN (Homo sapiens); construct: endogenous in cells; host or cells: SK-N-BE(2); assay: Degradation of MycN protein in SK-N-BE(2) cells, JESS/Western blot of lysates; assay type: cell-based; settings: SKNBE2, 24 h, SKNBE2 cells, 24 h, 1 μM; read-out: % Degradation of MycN (SKNBE2) 24 h, 1 μM
Overview of reported Dmax at 1 µM across a group of compounds:

                                   compound     valuekind  experimentalresult
0  CNC[C@H]1CN(c2nccc(Nc3cc(C4CCCC4)[nH]n3)n2)CCO1 [Compound 190]  Dmax at 1 µM           20 to 49%

QUERY: Name the recorded Dmax at 1 µM of the item c1cc(Nc2cc(C3CC3)[nH]n2)nc(N2CCC(C3CNC3)C2)n1 (racemic) [Compound 39] in your answer.
RESULT: < 20%

QUERY: For the compound NC[C@H]1CN(c2nccc(Nc3cc(C4CCCC4)[nH]n3)n2)CCO1 [Compound 187] , report Dmax at 1 µM.
RESULT: 20 to 49%

QUERY: Using the record for NC[C@@H]1CCCN(c2nccc(Nc3cc(C4CC4)[nH]n3)n2)C1 [Compound 24] , state its measured Dmax at 1 µM.
RESULT: 50 to 79%

QUERY: Give the value of Dmax at 1 µM reported for the following: CNC[C@H]1CCN(c2nccc(Nc3cc(C4CC4)[nH]n3)n2)C1 [Compound 7]
RESULT: < 20%

QUERY: Give reported Dmax at 1 µM value for CN1CC2(CCN(c3nccc(Nc4cc(C5CCCC5)[nH]n4)n3)C2)C1 [Compound 85]
RESULT: < 20%

QUERY: # return recorded Dmax at 1 µM for entry CN1CC(C2CCN(c3nccc(Nc4cc(C5CC5)[nH]n4)n3)C2)C1 (centres unmarked) [Compound 38]
RESULT: 20 to 49%

QUERY: # return recorded Dmax at 1 µM for entry CN1CC2(CCN(c3nccc(Nc4cc(C5CCCC5)[nH]n4)n3)CC2)C1 [Compound 86]
RESULT: 20 to 49%

QUERY: Name the recorded Dmax at 1 µM of the compound listed here: c1cc(Nc2cc(C3CCCC3)[nH]n2)nc(N2CC3(CN4CCOCC4)CC2C3)n1 [Compound 72]
RESULT: 20 to 49%

QUERY: Name the recorded Dmax at 1 µM of the item NC[C@H]1CCCN(c2nccc(Nc3cc(C4CCCC4)[nH]n3)n2)C1 [Compound 108] in your answer.
RESULT: 50 to 79%

QUERY: Return reported Dmax at 1 µM. Input compound: CN1CCC2(C1)CN(c1nccc(Nc3cc(C4CC4)[nH]n3)n1)C2 [Compound 26]
RESULT: 20 to 49%

QUERY: Output measured Dmax at 1 µM for this item: CN1CC2(CCN(c3nccc(Nc4cc(C5CC5)[nH]n4)n3)C2)C1 [Compound 3]
RESULT: < 20%

QUERY: Consider the compound NCC12CCC(C1)N(c1nccc(Nc3cc(C4CC4)[nH]n3)n1)C2 (centres unmarked) [Compound 113] and give its recorded Dmax at 1 µM.
RESULT: 80 to 100%

QUERY: Given the compound NCC1CN(c2nccc(Nc3cc(C4CC4)[nH]n3)n2)CC1(F)F (centres unmarked) [Compound 124] , write its reported Dmax at 1 µM.
RESULT: 20 to 49%

----------
Biological target: MycN (Homo sapiens, UniProt P04198)
Construct: endogenous in cells; host or cells: SK-N-BE(2)
Sequence (P04198 1-464): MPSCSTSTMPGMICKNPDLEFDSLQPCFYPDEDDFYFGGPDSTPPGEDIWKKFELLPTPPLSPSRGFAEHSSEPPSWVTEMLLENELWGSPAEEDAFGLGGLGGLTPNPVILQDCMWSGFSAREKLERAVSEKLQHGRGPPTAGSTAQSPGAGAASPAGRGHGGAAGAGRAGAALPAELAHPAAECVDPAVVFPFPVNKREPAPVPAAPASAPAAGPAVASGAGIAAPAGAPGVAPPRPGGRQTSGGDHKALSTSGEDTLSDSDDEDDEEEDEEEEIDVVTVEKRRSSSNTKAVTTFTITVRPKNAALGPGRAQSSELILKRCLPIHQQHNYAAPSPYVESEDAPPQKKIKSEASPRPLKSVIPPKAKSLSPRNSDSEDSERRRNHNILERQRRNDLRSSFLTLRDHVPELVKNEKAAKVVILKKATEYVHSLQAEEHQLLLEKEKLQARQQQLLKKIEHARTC
Assay: Degradation of MycN protein in SK-N-BE(2) cells, JESS/Western blot of lysates
Type: cell-based
Settings: SKNBE2, 24 h, SKNBE2 cells, 24 h, 1 μM; read-out: % Degradation of MycN (SKNBE2) 24 h, 1 μM
valueKind: Dmax at 1 µM

>>> print(df.to_string())
                                   compound     valuekind  experimentalresult
0  NC[C@H]1CN(c2nccc(Nc3cc(C4CC4)[nH]n3)n2)C[C@H]1F [Compound 122-2]  Dmax at 1 µM               < 20%
1  NCC1CCN(c2nccc(Nc3cc(C4CC4)[nH]n3)n2)CC1 [Compound 10]  Dmax at 1 µM           20 to 49%
2  CNCC12CC(C1)N(c1ncc(C)c(Nc3cc(C4CCCC4)[nH]n3)n1)C2 [Compound 182]  Dmax at 1 µM           20 to 49%
3  CNC[C@H]1CCN(c2nccc(Nc3cc(C4CCCC4)[nH]n3)n2)C1 [Compound 35]  Dmax at 1 µM           50 to 79%
4  c1cc(Nc2cc(C3CCCC3)[nH]n2)nc(N2CCC(C3CNC3)C2)n1 (stereo not shown) [Compound 28]  Dmax at 1 µM          80 to 100%

Please turn your attention to the following entry.
QUERY: Note down Dmax at 1 µM recorded for CN1CC2(C1)CN(c1nccc(Nc3cc(C4CC4)[nH]n3)n1)C2 [Compound 4]
RESULT: 20 to 49%

----------
target: MycN (Homo sapiens, UniProt P04198); construct: endogenous in cells; host or cells: SK-N-BE(2); experiment: Degradation of MycN protein in SK-N-BE(2) cells, JESS/Western blot of lysates; assay type: cell-based; settings: SKNBE2, 24 h, SKNBE2 cells, 24 h, 1 μM; read-out: % Degradation of MycN (SKNBE2) 24 h, 1 μM
# Dmax at 1 µM per entry

In [3]: df
Out[3]:
                                   compound     valuekind  experimentalresult
0  CNCC12CC(C1)N(c1nc3c(c(Nc4cc(C5CCCC5)[nH]n4)n1)CCC3)C2  Dmax at 1 µM           50 to 79%
1  CC1(NCC23CC(C2)N(c2nccc(Nc4cc(C5CCCC5)[nH]n4)n2)C3)COC1  Dmax at 1 µM           20 to 49%

Now take the following compound into account.
QUERY: Give the reported Dmax at 1 µM for this compound. c1cc(Nc2cc(C3CC3)[nH]n2)nc(N2C[C@H]3CNC[C@@H]3C2)n1 (racemic)
RESULT: 20 to 49%

# credit: patent US20250170130A1
